The following compounds have recorded Ki on PKC alpha kinase (Homo sapiens).

{"columns": ["compound", "Ki"],
 "data": [
  ["Nc1ncccc1C(=O)c1nc(N2CCNC(CC(F)(F)F)C2)ccc1C(F)(F)F (stereo not shown)", "> 2800 nM"],
  ["Cc1ccccc1C(=O)N1CCCN(c2cccc(C(=O)c3cccnc3N)n2)CC1", "500 to 2800 nM"],
  ["Cc1ccc(-c2ccc(N3CCNC(c4ccccc4)C3)nc2C(=O)c2cccnc2N)o1 (stereo not shown)", "500 to 2800 nM"]
]}

Would you kindly look at the next entry?
Task: Fill in Ki for Nc1ncccc1C(=O)c1nc(NCCO)ccc1C(F)(F)F tested with PKC alpha kinase (Homo sapiens).
Output: > 2800 nM

---

# Lookup of reported Ki keyed by entry
assayedSystem: PKC delta kinase (Homo sapiens)
assayText: PKC Delta (coupled enzyme assay)
Type: biochemical
cond: 150 μM ATP, 46 nM PKC delta; read-out: Ki PKC delta
Description: An assay buffer solution was prepared which consisted of 100 mM HEPES (pH 7.5), 10 mM MgCl2, 25 mM NaCl, 0.1 mM EDTA and 0.01% Brij. […] To 16 μL of this enzyme buffer, in a 384 well plate, was added 1 μL of VRT stock solution in DMSO. The mixture was allowed to equilibrate for 10 mins at 30° C. […] Ki values were calculated from initial rate data by non-linear regression using the Prism software package (Prism 4.0a, Graphpad Software, San Diego, Calif.).

These solved cases illustrate the format of a correct answer.
{"columns": ["molecule", "assayedSystem", "obsValue"],
 "data": [
  ["CCC1CN(c2ccc(C(F)(F)F)c(C(=O)c3cccnc3N)n2)CCN1 (centres unmarked) [compound 432]", "PKC delta kinase (Homo sapiens)", "50 to 500 nM"],
  ["Nc1ncccc1C(=O)c1nc(N2CCNC(CC(F)(F)F)C2)ccc1C(F)(F)F (centres unmarked) [compound 491]", "PKC delta kinase (Homo sapiens)", "500 to 2800 nM"],
  ["CC(C)N1CCCN(c2cccc(C(=O)c3cccnc3N)n2)CC1 [compound 116]", "PKC delta kinase (Homo sapiens)", "50 to 500 nM"]
]}

Task: Fill in Ki for CC1CCCCC1C(=O)N1CCCN(c2cccc(C(=O)c3cccnc3N)n2)CC1 (centres unmarked) [compound 93] tested with PKC delta kinase (Homo sapiens).
Output: > 2800 nM

Task: Fill in Ki for CC(C)(F)CC1CN(c2ccc(C(F)(F)F)c(C(=O)c3cccnc3N)n2)CCN1 (centres unmarked) [compound 464] tested with PKC delta kinase (Homo sapiens).
Output: 50 to 500 nM

---

assayedSystem: PKC delta kinase (Homo sapiens, UniProt Q05655)
Sequence (Q05655 whole entry): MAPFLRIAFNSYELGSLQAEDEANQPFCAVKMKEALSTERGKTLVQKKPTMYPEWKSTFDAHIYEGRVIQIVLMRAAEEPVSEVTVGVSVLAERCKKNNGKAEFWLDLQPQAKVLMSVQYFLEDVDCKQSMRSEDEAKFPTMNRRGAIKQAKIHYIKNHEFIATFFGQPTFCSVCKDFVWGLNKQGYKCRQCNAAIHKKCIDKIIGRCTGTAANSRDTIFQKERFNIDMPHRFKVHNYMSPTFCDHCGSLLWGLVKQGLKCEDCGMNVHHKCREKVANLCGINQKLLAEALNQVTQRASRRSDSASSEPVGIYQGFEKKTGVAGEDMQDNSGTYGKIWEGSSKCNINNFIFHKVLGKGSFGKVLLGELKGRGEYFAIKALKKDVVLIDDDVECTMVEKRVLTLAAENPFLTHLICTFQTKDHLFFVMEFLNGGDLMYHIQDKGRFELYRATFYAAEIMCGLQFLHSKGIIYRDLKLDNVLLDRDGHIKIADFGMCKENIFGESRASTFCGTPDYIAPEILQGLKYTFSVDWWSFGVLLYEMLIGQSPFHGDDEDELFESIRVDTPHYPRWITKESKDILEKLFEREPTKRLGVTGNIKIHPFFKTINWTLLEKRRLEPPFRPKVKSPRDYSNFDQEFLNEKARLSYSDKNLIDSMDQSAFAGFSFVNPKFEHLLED
assayText: PKC Delta (coupled enzyme assay)
Assay type: biochemical
cond: 150 μM ATP, 46 nM PKC delta; read-out: Ki PKC delta
pKi: −log10 of the molar value.
# Lookup of reported pKi keyed by entry

{"columns": ["molecule", "pKi"],
 "data": [
  ["CC(C)(CN)CNc1ccc(C(F)(F)F)c(C(=O)c2cccnc2N)n1", "6.30 to 7.30"],
  ["CCC(=O)N1CCCN(c2cccc(C(=O)c3cccnc3N)n2)CC1", "5.55 to 6.30"],
  ["Cc1ccc(N2CCCNCC2)nc1C(=O)c1cccnc1N", "5.55 to 6.30"],
  ["CCN1CCCN(c2cccc(C(=O)c3cc(Br)cnc3N)n2)CC1", "6.30 to 7.30"],
  ["CC(C)C[C@H]1CN(c2cc(C(=O)c3cccnc3N)c(-c3ccco3)cn2)CCN1", "< 5.55"]
]}

Task: Look up and state reported pKi for CC(C)C[C@H]1CN(c2ccc(C(F)(F)F)c(C(=O)c3cc(Br)cnc3N)n2)CCN1
Output: 6.30 to 7.30

Task: Look up and state reported pKi for CC(C)C(=O)N1CCCN(c2cccc(C(=O)c3cc(Br)cnc3N)n2)CC1
Output: 5.55 to 6.30

Task: Look up and state reported pKi for Nc1ncc(Cl)cc1C(=O)c1nc(N2CCNCC2)ccc1C(F)(F)F
Output: 6.30 to 7.30

---

assayedSystem: PKC delta kinase (Homo sapiens, UniProt Q05655)
assayText: PKC Delta (coupled enzyme assay)
Format: biochemical
cond: 150 μM ATP, 46 nM PKC delta; read-out: Ki PKC delta
pKi: −log10 of the molar value.
assayEndpoint: pKi

{"columns": ["compound", "pKi"],
 "data": [
  ["Nc1ncccc1C(=O)c1nc(N2CC3CCC(C2)N3)ccc1C(F)(F)F", "6.30 to 7.30"],
  ["CCC(N)(COc1ccc(C(F)(F)F)c(C(=O)c2cccnc2N)n1)c1ccccc1 (stereo not drawn)", "6.30 to 7.30"],
  ["Nc1ncc(C(F)(F)F)cc1C(=O)c1cccc(N2CCCNCC2)n1", "6.30 to 7.30"],
  ["CC[C@H]1CN(c2ccc(C(F)(F)F)c(C(=O)c3cccnc3N)n2)C[C@H](CC(C)C)N1", "5.55 to 6.30"]
]}

Task: Look up and state reported pKi for CC(C)[C@H]1CN(c2ccc(C(F)(F)F)c(C(=O)c3cccnc3N)n2)C[C@@H](c2ccccc2)N1
Output: < 5.55

Task: Look up and state reported pKi for Nc1ncc(Cl)cc1C(=O)c1nc(N2CCNC(c3ccccc3)C2)ccc1C(F)(F)F (stereo not drawn)
Output: 6.30 to 7.30

Task: Look up and state reported pKi for Nc1ncccc1C(=O)c1nc(N2CCNC(C3CC3)C2)ccc1C(F)(F)F (stereo not drawn)
Output: 6.30 to 7.30

Task: Look up and state reported pKi for Cn1cc(-c2cccc(C(=O)c3cccnc3N)n2)cn1
Output: < 5.55

Task: Look up and state reported pKi for Nc1ncccc1C(=O)c1nc(OCC(N)C2CCOCC2)ccc1C(F)(F)F (stereo not drawn)
Output: < 5.55

Task: Look up and state reported pKi for Nc1ncccc1C(=O)c1nc(OCC2(N)CCCC2)ccc1C(F)(F)F
Output: 5.55 to 6.30

Task: Look up and state reported pKi for CCC[C@H]1CN(c2ccc(C(F)(F)F)c(C(=O)c3cccnc3N)n2)C[C@@H](c2ccccc2)N1
Output: < 5.55

Task: Look up and state reported pKi for CCc1cnc(N)c(C(=O)c2nc(N3CCN[C@@H](CC(C)C)C3)ccc2C(F)(F)F)c1
Output: 6.30 to 7.30

Task: Look up and state reported pKi for Nc1ncc(Br)cc1C(=O)c1cccc(N2CCCN(C(=O)Cc3cccc(O)c3)CC2)n1
Output: 5.55 to 6.30

---

# Lookup of reported Ki keyed by entry
assayedSystem: PKC delta kinase (Homo sapiens)
assayText: PKC Delta (coupled enzyme assay)
Assay type: biochemical
cond: 150 μM ATP, 46 nM PKC delta; read-out: Ki PKC delta

These solved cases illustrate the format of a correct answer.
{"columns": ["compound", "Ki"],
 "data": [
  ["CC(C)CC(C)(N)CNc1ccc(C(F)(F)F)c(C(=O)c2cccnc2N)n1 (stereo not drawn) [compound 443]", "50 to 500 nM"],
  ["Cc1cnc(N)c(C(=O)c2nc(N3CCN[C@@H](CC(C)C)C3)ccc2C(F)(F)F)c1 [compound 499]", "50 to 500 nM"]
]}

Would you kindly look at the next entry?
Task: Fill in Ki for Cc1ccccc1C(=O)N1CCCN(c2cccc(C(=O)c3cccnc3N)n2)CC1 [compound 89] tested with PKC delta kinase (Homo sapiens).
Output: > 2800 nM

---

assayedSystem: PKC delta kinase (Homo sapiens)
assayText: PKC Delta (coupled enzyme assay)
Assay type: biochemical
cond: 150 μM ATP, 46 nM PKC delta; read-out: Ki PKC delta
assayEndpoint: Ki

These solved cases illustrate the format of a correct answer.
{"columns": ["molecule", "obsValue"],
 "data": [
  ["Nc1ncccc1C(=O)c1nc(N2CCNC(CC3CC3)C2)ccc1C(F)(F)F (centres unmarked) [compound 441]", "50 to 500 nM"],
  ["COCC1CN(c2ccc(C(F)(F)F)c(C(=O)c3cccnc3N)n2)CCN1 (centres unmarked) [compound 455]", "500 to 2800 nM"],
  ["Cc1ccsc1CN1CCCN(c2cccc(C(=O)c3cccnc3N)n2)CC1 [compound 106]", "500 to 2800 nM"]
]}

Task: Look up and state reported Ki for Nc1ncccc1C(=O)c1nc(NCC2CCC(N)CC2)ccc1C(F)(F)F (centres unmarked) [compound 460]
Output: 500 to 2800 nM

Task: Look up and state reported Ki for C[C@H]1CN(c2ccc(C(F)(F)F)c(C(=O)c3cccnc3N)n2)CCN1 [compound 478]
Output: 50 to 500 nM

Task: Look up and state reported Ki for CC(C)C1OC(=O)N2CCN(c3ccc(C(F)(F)F)c(C(=O)c4cccnc4N)n3)CC12 (centres unmarked) [compound 453]
Output: > 2800 nM

Task: Look up and state reported Ki for Nc1ncccc1C(=O)c1nc(OCCC(N)c2ccccc2)ccc1C(F)(F)F (centres unmarked) [compound 427]
Output: 50 to 500 nM

Task: Look up and state reported Ki for C=Cc1ccc(N2CCN[C@H](c3ccccc3)C2)nc1C(=O)c1cccnc1N [compound 445]
Output: 500 to 2800 nM

# credit: patent US8741931B2
